All figures here come from the supplement of paper PMC8253809.

# Test system: SUDIPGIV (diffuse intrinsic pontine glioma line)
# protocol: growth inhibition (% activity, log2 RLU normalised to DMSO / staurosporine); higher = more growth inhibition
# recorded-conditions: 33 µM
The compounds listed here are annotated with their growth inhibition.
readout-kind: growth inhibition (%)

>>> result_value("CN1CCN(c2cc3c(cc2F)c(=O)c(C(=O)O)cn3-c2ccc(F)cc2)CC1")
0.444
>>> result_value("Cc1ccc2c(Cl)cc(Cl)c(O)c2n1")
5.39
>>> result_value("Clc1ccc2nsnc2c1NC1=NCCN1")
-2.55
>>> result_value("CC1(C(=O)O)CCC2(C)CCC3(C)C(=CC(=O)C4C5(C)CCC(OC6OC(C(=O)O)C(O)C(O)C6OC6OC(C(=O)O)C(O)C(O)C6O)C(C)(C)C5CCC43C)C2C1 (stereo not drawn)")
-1.58
>>> result_value("c1ccc(-c2ccc(C(c3ccccc3)n3ccnc3)cc2)cc1 (stereo not drawn)")
13.7
>>> result_value("Cc1cc(=O)n(-c2ccccc2)n1C")
0.134
>>> result_value("CCN1CCCC1CNC(=O)c1cc(S(=O)(=O)CC)c(N)cc1OC (stereo not drawn)")
2.02
>>> result_value("CN(C)/N=N/c1[nH]cnc1C(N)=O")
12.8
>>> result_value("CC(=O)NC[C@H]1CN(c2ccc(N3CCOCC3)c(F)c2)C(=O)O1")
4.69
>>> result_value("COCCOC(=O)C1=C(C)NC(C)=C(C(=O)OC/C=C/c2ccccc2)C1c1cccc([N+](=O)[O-])c1 (stereo not drawn)")
6.24
>>> result_value("C[C@@H](c1ncncc1F)[C@](O)(Cn1cncn1)c1ccc(F)cc1F")
-1.27
>>> result_value("C[C@@H](O[C@H]1OCCN(Cc2nn(P(=O)(O)O)c(=O)[nH]2)[C@H]1c1ccc(F)cc1)c1cc(C(F)(F)F)cc(C(F)(F)F)c1")
16.2
>>> result_value("CN1CCC(=C2c3ccccc3CC(=O)c3sccc32)CC1")
-1.24
>>> result_value("Clc1ccc(C(Cn2ccnc2)OCc2ccsc2Cl)c(Cl)c1 (stereo not drawn)")
13.7
>>> result_value("CCCNC(C)C(=O)Nc1ccccc1C (stereo not drawn)")
-1.79
>>> result_value("NC(=O)c1ncn([C@@H]2O[C@H](CO)[C@@H](O)[C@H]2O)n1")
-0.992
>>> result_value("CCCCCCCCCCCCCCCCCCCCCCO")
-1.18
>>> result_value("CCCCCCCCCCCCCCCC[N+](C)(C)CCN(Cc1ccc(OC)cc1)c1ncccn1")
57.6
>>> result_value("CC1CCc2c(N3CCC(O)CC3)c(F)cc3c(=O)c(C(=O)O)cn1c23 (stereo not drawn)")
0.692
>>> result_value("CCCCCCCCCCC[C@@H](C[C@@H]1OC(=O)[C@H]1CCCCCC)OC(=O)[C@H](CC(C)C)NC=O")
-1.86
>>> result_value("CCCc1nc(C)c2c(=O)nc(-c3cc(S(=O)(=O)N4CCN(CC)CC4)ccc3OCC)[nH]n12")
0.711
>>> result_value("Cc1cc(C)nc(NS(=O)(=O)c2ccc(N)cc2)n1")
-1.47
>>> result_value("C[C@]12C=CC(=O)C=C1CC[C@H]1[C@@H]3C[C@@H](O)[C@](O)(C(=O)CO)[C@@]3(C)C[C@H](O)[C@@]12F")
-3.68
>>> result_value("CCCCCCCCCCCCCCCCO")
2.42
>>> result_value("CC(NC(=O)Cc1cc(F)cc(F)c1)C(=O)NC(C(=O)OC(C)(C)C)c1ccccc1 (stereo not drawn)")
-6.22
>>> result_value("CCCCOc1ccc(CC(=O)NO)cc1")
3.36
>>> result_value("CC[C@H](C)C(=O)O[C@H]1CCC=C2C=C[C@H](C)[C@H](CC[C@@H]3C[C@@H](O)CC(=O)O3)[C@H]21")
15.3
>>> result_value("CCC(=O)O[C@]1(C(=O)CCl)[C@@H](C)C[C@H]2[C@@H]3CCC4=CC(=O)C=C[C@]4(C)[C@@]3(F)[C@@H](O)C[C@@]21C")
6.72
>>> result_value("CC(/C=C1\\SC(=S)N(CC(=O)O)C1=O)=C\\c1ccccc1")
-1.67
>>> result_value("CN1C(C(=O)Nc2ccccn2)=C(O)c2ccccc2S1(=O)=O")
-1.29
>>> result_value("Cc1ccc(C(=O)Nc2ccc(CN3CCN(C)CC3)c(C(F)(F)F)c2)cc1C#Cc1cnc2cccnn12")
18.6
>>> result_value("CN(C)CCc1c[nH]c2ccc(CS(=O)(=O)N3CCCC3)cc12")
0.896
>>> result_value("O=C(c1ccc(OCCN2CCCCC2)cc1)c1c(-c2ccc(O)cc2)sc2cc(O)ccc12")
0.509
>>> result_value("CNC(CC(C)C)C(=O)NC1C(=O)NC(CC(N)=O)C(=O)NC2C(=O)NC3C(=O)NC(C(=O)NC(C(=O)O)c4cc(O)cc(O)c4-c4cc3ccc4O)C(O)c3ccc(c(Cl)c3)Oc3cc2cc(c3OC2OC(CO)C(O)C(O)C2OC2CC(C)(N)C(O)C(C)O2)Oc2ccc(cc2Cl)C1O (stereo not drawn)")
-0.924
>>> result_value("C[C@]12CC[C@@H]3c4ccc(O)cc4CC[C@H]3[C@@H]1CC[C@@H]2O")
-0.561
>>> result_value("Cc1cccn2c(=O)c(-c3nnn[nH]3)cnc12")
-0.133
>>> result_value("NC[C@H]1O[C@H](O[C@H]2[C@H](O)[C@@H](O[C@H]3O[C@H](CO)[C@@H](O)[C@H](N)[C@H]3O)[C@H](N)C[C@@H]2N)[C@H](N)C[C@@H]1O")
-0.0713
>>> result_value("Cc1cc(C#N)cc(C)c1Oc1nc(Nc2ccc(C#N)cc2)nc(N)c1Br")
1.55
